Reference source for all entries: the supplement of paper PMC4466140

Catalogue of SPOT peptide array binding signal intensity readings, one per entry.
Target: ScBbc1
Assay: SPOT peptide array binding signal intensity (averaged, normalized) (arbitrary units (background-subtracted, floor 0; scale differs between SH3 domains)); higher = stronger binding of the SH3 domain to the peptide

Here's what some known entries look like.
binder=VYTRTAFQIPGDDKI result="≤ 0"
binder=QPPLPSSAPPIPTSH result="≤ 0"
binder=QNTPPLPPKPKSPHL result="≤ 0"

Next, consider the following binder.
State, in one line, measured SPOT peptide array binding signal intensity of `AAHKTKPSIPPKKVE` ≤ 0
